target: T1, AAV8 (adeno-associated virus 8); experiment: SPR, AAV amine-coupled to CM5 chip;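 also: nanobodies flowed as analyte at seven concentrations spanning 1–100 nM over immobilized AAV (500–800 RU), kinetic constants derived by fitting the binding curves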
T1 construct: also called adeno-associated virus serotype 8
Reported kon values for the following binders.
quantity: kon (M⁻¹ s⁻¹)

{"columns": ["binder", "value.reported"],
 "data": [
  ["A4-078 (VHH) VHH: VQLQESGGGLVQPGGSLRLSCLASGTMFSLNTMGWYRQAPGKQRELVATVTRGGSTNYADFVKGRFTISRDNAKNTVYLQMNSLRPEDTAVYYCHVDEVRDSSWTTSNLWGQGTQVTVSS", 97500],
  ["A4-055 (VHH) VHH: VQLQESGGGLVQPGGSLRLSCAASGSIFSINTMGWYRQAPGKQRELVAAVTRGGSTNYADSVKGRFTISRDNAKNTVYLQMNSLRPEDTAVYYCHVDEVRQSSWTTSNLWGQGTQVTVSS", 198000],
  ["A4-068 (VHH) VHH: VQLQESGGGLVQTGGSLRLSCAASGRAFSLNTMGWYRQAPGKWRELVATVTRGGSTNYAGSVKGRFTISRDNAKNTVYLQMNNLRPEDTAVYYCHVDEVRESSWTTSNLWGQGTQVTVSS", 24000],
  ["A4-059 (VHH) VHH: VQLQESGGGAVQPGGSLRLSCAASGSHFSLNTMGWYRRAPGKQRELVATVTRGGSTNYADSVKGRFTISRDNAKNTIYLQMNSLRPEDTAVYYCHVDEVRQSTWTTSNLWGQGTQVTVSS", 32500]
]}
